Tested on: Lgr5 (MarsCy1-Lgr5-EGFP, U2OS)
Assay: cell-surface Lgr5 expression (SCi1 fluorescence, background-subtracted) relative to WT DMSO (fold of DMSO control); higher = more Lgr5 at the plasma membrane, active = hit call of the paper
Conditions: U2OS MarsCy1-Lgr5-EGFP stable; treatment time: overnight; 16 µM; library: Johns Hopkins Clinical Compound Library
Counter-ions that a name gives are not always drawn. About 50 (4%) of roughly 1,200 compounds showed activity. The sample holds actives, similar compounds and a random draw of the others, so the mix is not that of the screen.
# cell-surface Lgr5 expression values compiled below
When you answer, write just the number.

{"compound": "Cc1cccc(C)c1NC(=O)C(C)N (stereo not drawn) [Tocainide hydrochloride]", "cell-surface Lgr5 expression": 1.07}
{"compound": "C=C1c2c(Cl)ccc(O)c2C(O)=C2C(=O)[C@]3(O)C(O)=C(C(N)=O)C(=O)[C@@H](N(C)C)[C@@H]3[C@@H](O)[C@H]12.O=C(O)c1cc(S(=O)(=O)O)ccc1O [Meclocycline sulfosalicylate salt]", "cell-surface Lgr5 expression": 0.705}

Okay, next one:
Challenge: Enter reported cell-surface Lgr5 expression observed with Lgr5 (MarsCy1-Lgr5-EGFP, U2OS) for O=S(=O)([O-])[O-].O=S(=O)([O-])[O-].[Al+3].[Na+] [Aluminum sodium sulfate]
Response given: 0.71

---

System: Lgr5 (MarsCy1-Lgr5-EGFP, U2OS)
Assay: cell-surface Lgr5 expression (SCi1 fluorescence, background-subtracted) relative to WT DMSO (fold of DMSO control); higher = more Lgr5 at the plasma membrane, active = hit call of the paper
Details: U2OS MarsCy1-Lgr5-EGFP stable; treatment time: overnight; 16 µM; library: Johns Hopkins Clinical Compound Library
Out of some 1,200 compounds screened, about 50 (4%) showed activity. The full list was thinned out, with actives kept by preference.
measure: cell-surface Lgr5 expression

Challenge: Enter reported cell-surface Lgr5 expression observed with Lgr5 (MarsCy1-Lgr5-EGFP, U2OS) for Nc1nc2[nH]cnc2c(=S)[nH]1 [Thioguanine (2-amino,6-mercaptopurine)]
Response given: 0.849 (inactive)

Challenge: And then Cn1c(NCCN(CCO)CCCc2ccc([N+](=O)[O-])cc2)cc(=O)n(C)c1=O [Nifekalant] , what is it?
Response given: 0.923 (inactive)

Challenge: And then COC(=O)[C@H](Cc1ccccc1)NC(=O)[C@@H](N)CC(=O)O [Aspartame] , what is it?
Response given: 0.834 (inactive)

Challenge: And then CCN(CC)Cc1cc(Nc2ccnc3cc(Cl)ccc23)ccc1O [Amodiaquin] , what is it?
Response given: 1.47 (inactive)

Challenge: And then S=c1[nH]cnc2nc[nH]c12 [6-Mercaptopurine monohydrate] , what is it?
Response given: 1.67 (active)

---

System: Lgr5 (MarsCy1-Lgr5-EGFP, U2OS)
Assay: cell-surface Lgr5 expression (SCi1 fluorescence, background-subtracted) relative to WT DMSO (fold of DMSO control); higher = more Lgr5 at the plasma membrane, active = hit call of the paper
Settings: U2OS MarsCy1-Lgr5-EGFP stable; treatment time: overnight; 16 µM; library: Johns Hopkins Clinical Compound Library
Counter-ions that a name gives are not always drawn. In all, about 1,200 compounds went through this assay and about 50 (4%) showed activity. For the sample, actives were picked, then their nearest neighbours and some compounds at random.
# cell-surface Lgr5 expression values compiled below
When you answer, write just the number.

{"molecule": "Clc1ccc(CO/N=C(\\Cn2ccnc2)c2ccc(Cl)cc2Cl)c(Cl)c1 [Oxiconazole nitrate]", "measure": "cell-surface Lgr5 expression", "valueReported": 0.871}
{"molecule": "NCCc1ccc(O)c(O)c1 [3-hydroxytyramine (Dopamine)]", "measure": "cell-surface Lgr5 expression", "valueReported": 1.43}
{"molecule": "CCC(=O)[C@@]1(C)[C@H](C)C[C@H]2[C@@H]3CCC4=CC(=O)C=C[C@]4(C)[C@H]3[C@@H](O)C[C@@]21C [Rimexolone]", "measure": "cell-surface Lgr5 expression", "valueReported": 1.39}
{"molecule": "C[C@]12C=CC(=O)C=C1CC[C@@H]1[C@@H]2[C@@H](O)C[C@@]2(C)[C@H]1CC[C@]2(O)C(=O)COP(=O)(O)O [Prednisolone 21-phosphate, disodium salt]", "measure": "cell-surface Lgr5 expression", "valueReported": 1.41}

Challenge: Enter reported cell-surface Lgr5 expression observed with Lgr5 (MarsCy1-Lgr5-EGFP, U2OS) for COc1ccc(CN2CCN(C(c3ccc(F)cc3)c3ccc(F)cc3)CC2)c(OC)c1OC [Lomerizine HCl]
Response given: 1.15

Challenge: And then [Cl-].[Cl-].[Cl-].[In+3] [Indium(III) chloride] , what is it?
Response given: 0.736

Challenge: And then C[C@H]1C[C@@H]2[C@H]([C@@H](O)C[C@@]3(C)[C@H]2CC[C@]3(O)C(=O)CO)[C@@]2(C)C=CC(=O)C=C12 , what is it?
Response given: 1.12

Challenge: And then CNCC(O)c1ccc(OC(=O)C(C)(C)C)c(OC(=O)C(C)(C)C)c1 (stereo not drawn) [Dipivefrin HCl] , what is it?
Response given: 1.42

Challenge: And then N.O=C(O)CC(O)(CC(=O)O)C(=O)O.[Fe+3] [Ferric ammonium citrate] , what is it?
Response given: 1.06

Challenge: And then COc1ccc2cc([C@H](C)C(=O)O)ccc2c1 [Naproxen sodium] , what is it?
Response given: 1.03

Challenge: And then N[C@@H](Cc1ccc(O)c(O)c1)C(=O)O [Levodopa (L-beta-3,4-Dihydroxyphenylananine)] , what is it?
Response given: 0.449

Challenge: And then CNC[C@H](O)c1cccc(O)c1 [L-Phenylephrine hydrochloride] , what is it?
Response given: 0.598

Challenge: And then CCOC(C)OCC , what is it?
Response given: 1.06

Challenge: And then COC(=O)CCc1ccc(OCC(O)CNC(C)C)cc1 (stereo not drawn) , what is it?
Response given: 1.29

Challenge: And then Nc1ccc(C(=O)O)cc1 [4-Aminobenzoic acid, sodium salt,99%] , what is it?
Response given: 0.905

Challenge: And then NCCc1ccc(O)c(O)c1 [Dopamine (3-Hydroxytyramine hydrochloride)] , what is it?
Response given: 1.51
